B1: CDC25B (parent)
chain: FVDILESDLKDDDAVPPGMESLIS

Variants of: B1
Experiment: protein stability index of a GFP-peptide fusion (GPS, HEK-293T) (PSI 1-6); higher = more stable;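 note: lentivirally expressed fusions sorted by FACS into six bins by GFP to DsRed ratio, PSI derived from sequencing read proportions per bin multiplied by bin number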
Conditions: c terminus: a fixed tail appended
quantity: protein stability index

    mutation_code  obs_value
 0           D12E       2.93
 1           P16H       3.14
 2           D13K       2.96
 3           G18W       2.31
 4            L5Q       3.67
 5            F1P       5.46
 6           G18R       2.87
 7            F1L       4.81
 8           P16D       3.62
 9           E20C       2.43
10           A14D       3.48
11            I4G       3.46
12           M19A       3.22
13           P17W       1.81
14            V2G       3.81
15            F1I       4.33
16           S24F       2.01
17            L5H        3.7
18           L22Q       3.32
19            E6I       1.93
20           P17Y       2.71
21            V2A       4.51
22            E6C       2.13
23            V2L       3.73
24           D11P       2.68
25            V2M       4.76
26            L9C       3.05
